For each record, write down the corresponding pKd.
# assayed-target: α-syn fibrils (Homo sapiens, UniProt P37840)
# assay-remarks: α-Synuclein fibril/ligand saturation binding assay
# condition-context: Kd α-syn, Table 3 and text; α-syn fibrils, saturation binding; mean ± SD (n = 3)
Numbers only, as −log10 of the molar value.

[[record]]
compound = "O=C(O)c1ccc(-c2ccc(/C=C/C=C3\\Cc4ccc(O)cc4C3=O)cc2)cc1 [compound 32]"
reported_result = 7.73

[[record]]
compound = "COc1ncc(-c2ccc(/C=C3/Cc4ccccc4C3=O)s2)c(OC)n1 [compound 42]"
reported_result = 7.03

[[record]]
compound = "COc1cc(-c2ccc(/C=C3/Cc4ccccc4C3=O)s2)ccc1O [compound 39]"
reported_result = 7.03


Task item: Which pKd is listed for CN(C)c1ccc(/C=C/C=C2\CCc3ccccc3C2=O)cc1 [compound 24] ?
Reply: 7.01

---

# assayed-target: α-syn fibrils (Homo sapiens)
# assay-remarks: Fluorescent properties of ligand-α-syn fibril complex
# Assay type: physicochemical
Can you tell me Absmax Ligand + α-syn for the items I'm about to list?

[[record]]
compound = "COc1cc(/C=C/C=C2\\Cc3ccccc3C2=O)ccc1O [compound 8]"
reported_result = 446

[[record]]
compound = "COc1cc(/C=C/C=C2\\CCc3ccccc3C2=O)ccc1O [compound 23]"
reported_result = 447

[[record]]
compound = "COc1cc(-c2ccc(/C=C/C=C3\\Cc4ccccc4C3=O)cc2)ccc1O [compound 29]"
reported_result = 428

[[record]]
compound = "O=C(O)c1ccc(-c2ccc(/C=C/C=C3C(=O)c4ccccc4C3=O)cc2)s1 [compound 35]"
reported_result = 425


Provide reported Absmax Ligand + α-syn for each item, in the same order as listed.
1. CN(C)c1ccc(/C=C/C=C2\CCc3ccccc3C2=O)cc1 [compound 24]
2. CN(C)c1ccc(/C=C/C=C2\Cc3ccccc3C2=O)cc1 [compound 9]
3. COc1cc(-c2ccc(/C=C3/Cc4ccccc4C3=O)s2)ccc1O [compound 39]
4. O=C(O)c1ccc(-c2ccc(/C=C/C=C3\Cc4ccc(O)cc4C3=O)cc2)cc1 [compound 32]
5. COc1ncc(-c2ccc(/C=C3/Cc4ccccc4C3=O)s2)c(OC)n1 [compound 42]
6. COc1cc(/C=C/C=C2C(=O)c3ccccc3C2=O)ccc1O [compound 20]

Reply:
452
462
439
448
465
440

---

# assay-remarks: Absorption/emission maxima and fluorescence quantum yield of free ligand in PBS
# Assay type: physicochemical
# condition-context: free ligand in PBS
observable: Absmax
Give bare numbers.

Please review the following examples before continuing.
[[record]]
structure_string = "CN(C)c1ccc(-c2ccc(/C=C3/Cc4ccccc4C3=O)s2)cc1"
observable = "Absmax"
reported_result = 413

[[record]]
structure_string = "O=C1/C(=C\\c2ccc(-c3ccc(CO)cc3)s2)Cc2ccccc21"
observable = "Absmax"
reported_result = 431

[[record]]
structure_string = "O=C1/C(=C/C=C/c2ccc(-c3ccc(CO)cc3)cc2)Cc2ccc(O)cc21"
observable = "Absmax"
reported_result = 368

[[record]]
structure_string = "COc1cc(-c2ccc(/C=C/C=C3\\Cc4ccccc4C3=O)cc2)ccc1O"
observable = "Absmax"
reported_result = 397


Next up:
Task item: I am curious: what Absmax value has been reported for CN(C)c1ccc(/C=C/C=C2C(=O)c3ccccc3C2=O)cc1 ?
Reply: 416
